# Target Desc: Arginase-2, mitochondrial (Homo sapiens) (UniProt P78540)
# Sequence (P78540 whole entry): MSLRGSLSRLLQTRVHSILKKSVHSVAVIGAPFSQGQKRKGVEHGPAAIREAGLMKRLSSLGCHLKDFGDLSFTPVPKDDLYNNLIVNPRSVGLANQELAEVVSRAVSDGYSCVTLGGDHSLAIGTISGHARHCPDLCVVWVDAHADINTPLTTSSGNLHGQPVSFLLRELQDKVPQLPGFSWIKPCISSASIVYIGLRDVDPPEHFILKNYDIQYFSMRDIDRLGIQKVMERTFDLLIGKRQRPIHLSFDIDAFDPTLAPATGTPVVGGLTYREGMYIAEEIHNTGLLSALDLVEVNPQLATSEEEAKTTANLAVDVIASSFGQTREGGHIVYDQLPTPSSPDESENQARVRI
# Method: in vitro enzyme assay to detect the production of urea directly proportional to the activity of Arginase II
# Assay type: functional
# Set-up: scale not given: in the data most compounds retested in dose-response had high values
# Condition Details: 33.3 µM
The entries below are paired with their reported Percent Effect.
State just the number; it will be interpreted in %.

Some solved entries appear below for comparison.
>  <Smiles Representation>
COc1ccc(CN2C[C@@H](OCc3csc(C)n3)[C@H]3COC[C@H]32)cc1

>  <Unit Abbrev>
%

>  <Experimental Result>
-0.399

$$$$
>  <Smiles Representation>
CN(CCn1nc2ccccn2c1=O)CC(=O)N1CCCC1

>  <Unit Abbrev>
%

>  <Experimental Result>
3.55

$$$$

Moving on to the next compound.
The value of Percent Effect measured for the compound CS(=O)(=O)N[C@@H]1CCO[C@]2(CCN(C(=O)c3cnccn3)C2)C1 turned out to be 0.955

The reported measurements were obtained from ChEMBL document CHEMBL3988442.
